target_or_system: ABL1 wt (Homo sapiens (Human))
Sequence (P00519 118-535 limits assumed): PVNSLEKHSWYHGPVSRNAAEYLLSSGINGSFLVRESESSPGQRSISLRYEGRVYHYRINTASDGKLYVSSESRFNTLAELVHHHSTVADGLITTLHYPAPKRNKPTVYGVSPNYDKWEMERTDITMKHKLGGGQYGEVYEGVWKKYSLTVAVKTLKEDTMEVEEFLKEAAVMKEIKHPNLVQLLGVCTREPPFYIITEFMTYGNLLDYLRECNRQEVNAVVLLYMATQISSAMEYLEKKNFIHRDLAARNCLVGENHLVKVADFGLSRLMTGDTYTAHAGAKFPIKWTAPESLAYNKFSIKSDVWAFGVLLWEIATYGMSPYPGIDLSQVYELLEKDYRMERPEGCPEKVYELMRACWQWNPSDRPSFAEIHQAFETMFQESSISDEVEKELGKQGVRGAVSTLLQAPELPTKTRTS
pIC50: −log10 of the molar value.

| molecule | pIC50 |
| --- | --- |
| Cc1nc(Nc2ncc(C(=O)Nc3c(C)noc3C)s2)cc(N2CCN(CCO)CC2)n1 | 7.56 |
| Cc1nc(Nc2ncc(C(=O)Nc3c(Cl)ccnc3C)s2)cc(N2CCN(C)CC2)n1 | 8.37 |
| Cc1nc(Nc2ncc(C(=O)Nc3ncccc3C)s2)cc(N2CCN(CCO)CC2)n1 | 7.84 |

* * *

measurement_protocol: in vivo
assay_conditions: male, CD1, mouse, in vivo, iv, 1 mg/kg

| molecule | MRT inf |
| --- | --- |
| Cc1nc(Nc2ncc(C(=O)Nc3c(C)csc3Cl)s2)cc(N2CCN(CCO)CC2)n1 | 1 h |
